- Test System: ATP-dependent translocase ABCB1 (Homo sapiens) (UniProt P08183)
- Sequence (P08183 whole entry, looked up): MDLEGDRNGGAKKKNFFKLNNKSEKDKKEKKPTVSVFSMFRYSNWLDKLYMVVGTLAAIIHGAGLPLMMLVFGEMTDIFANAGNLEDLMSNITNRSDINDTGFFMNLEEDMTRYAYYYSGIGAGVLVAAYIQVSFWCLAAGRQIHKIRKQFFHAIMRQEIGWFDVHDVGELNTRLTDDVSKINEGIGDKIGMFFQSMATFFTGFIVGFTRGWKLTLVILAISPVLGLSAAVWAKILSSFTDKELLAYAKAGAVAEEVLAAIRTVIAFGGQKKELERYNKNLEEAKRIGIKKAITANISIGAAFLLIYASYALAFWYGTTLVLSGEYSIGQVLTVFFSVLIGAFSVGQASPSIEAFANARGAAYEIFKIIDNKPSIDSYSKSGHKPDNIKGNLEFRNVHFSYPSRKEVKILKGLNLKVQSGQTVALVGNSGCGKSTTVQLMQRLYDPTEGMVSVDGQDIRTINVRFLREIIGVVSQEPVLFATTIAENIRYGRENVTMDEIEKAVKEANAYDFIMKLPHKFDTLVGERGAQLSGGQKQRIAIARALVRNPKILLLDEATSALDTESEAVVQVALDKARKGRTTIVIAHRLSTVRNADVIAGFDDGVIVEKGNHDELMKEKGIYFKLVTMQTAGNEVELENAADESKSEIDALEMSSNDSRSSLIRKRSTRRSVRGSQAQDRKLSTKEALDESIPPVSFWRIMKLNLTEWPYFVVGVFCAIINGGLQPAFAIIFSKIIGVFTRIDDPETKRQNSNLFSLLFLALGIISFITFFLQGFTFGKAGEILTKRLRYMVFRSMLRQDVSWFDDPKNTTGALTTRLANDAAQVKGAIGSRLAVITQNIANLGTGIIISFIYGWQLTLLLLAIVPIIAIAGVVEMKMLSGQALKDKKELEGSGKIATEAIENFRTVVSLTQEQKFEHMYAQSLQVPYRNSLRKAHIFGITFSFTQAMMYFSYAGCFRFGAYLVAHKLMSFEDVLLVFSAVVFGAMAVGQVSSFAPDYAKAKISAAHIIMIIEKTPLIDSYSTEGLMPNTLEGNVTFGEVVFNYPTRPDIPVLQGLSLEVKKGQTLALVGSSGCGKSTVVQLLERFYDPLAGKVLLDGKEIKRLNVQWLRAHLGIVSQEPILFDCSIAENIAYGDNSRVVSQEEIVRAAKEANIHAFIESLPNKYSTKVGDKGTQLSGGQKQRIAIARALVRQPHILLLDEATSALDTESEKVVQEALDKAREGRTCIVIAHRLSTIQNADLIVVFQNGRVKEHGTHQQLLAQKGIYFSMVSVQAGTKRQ
- Test: P-glycoprotein substrate transport blockade – cell-based (AID 377)
- Test Conditions: MDR1-expressing cells, fluorescent substrate accumulation slope; hits give high values; concentration not given here
Inconclusive results are not listed.

Compound: CC[C@H](C)[C@H]1O[C@]2(CC[C@@H]1C)C[C@@H]1C[C@@H](C/C=C(\C)C(O[C@H]3C[C@H](OC)[C@@H](O[C@H]4C[C@H](OC)[C@@H](O)[C@H](C)O4)[C@H](C)O3)[C@@H](C)/C=C/C=C3\CO[C@@H]4[C@H](O)C(C)=C[C@@H](C(=O)O1)[C@]34O)O2 (stereo partly drawn)
Unit Abbrev: %
fluorescence slope change: 136
//
Compound: CCOc1ccc2ccccc2c1C(=O)NC1C(=O)N2C1SC(C)(C)C2C(=O)O (stereo not drawn)
Unit Abbrev: %
fluorescence slope change: 71.1
//
Compound: COC1CC(O[C@H]2[C@H](C)[C@@H](OC3OC(C)CC(N(C)C)C3O)[C@@H](C)C[C@]3(CO3)C(=O)[C@H](C)[C@@H](O)[C@@H](C)[C@@H](C)OC(=O)[C@@H]2C)OC(C)C1O (stereo partly drawn)
Unit Abbrev: %
fluorescence slope change: 96.5
